# target.or.test.system: Angiotensin-converting enzymes (ACE) from porcine kidneys (EC 3.4.15.1) (Sus scrofa, UniProt F1RRW5)
# Construct: Angiotensin-converting enzymes (ACE) from porcine kidneys (EC 3.4.15.1) were purchased from Sigma-Aldrich; purchased Sigma-Aldrich (St. Louis, MO, USA); host or cells: porcine kidneys (tissue-derived enzyme)
# protocol.description: biochemical
# experimental.setup: values of this study restated in mM in the discussion; read-out: IC50 (ACE inhibition)
attribute.measured: IC50 (mM)
Answers are plain numbers, in mM.

Consider the worked cases shown below.
[
  {
    "compound": "COc1cc(/C=C/C(=O)O)ccc1O [Ferulic acid]",
    "IC50, mM": 0.98
  },
  {
    "compound": "O=C(O)c1ccc(O)c(O)c1 [Protocatechuic acid]",
    "IC50, mM": 6.24
  }
]

Alright, here's another compound for you.
Recorded IC50 for O=C(O)/C=C/c1ccc(O)c(O)c1 [Caffeic acid] , please?
9.11

* * *

# target.or.test.system: Angiotensin-converting enzymes (ACE) from porcine kidneys (EC 3.4.15.1) (Sus scrofa)
# Construct: Angiotensin-converting enzymes (ACE) from porcine kidneys (EC 3.4.15.1) were purchased from Sigma-Aldrich; purchased Sigma-Aldrich (St. Louis, MO, USA); host or cells: porcine kidneys (tissue-derived enzyme)
# protocol.description: biochemical
# experimental.setup: ACE inhibition, glucoside vs aglycon
attribute.measured: higher value of IC50 as compared to the IC50 of the respective aglycon (%)
One number for each entry, in %.

Consider the worked cases shown below.
[
  {
    "compound": "O=c1cc(-c2ccc(OC3OC(CO)C(O)C(O)C3O)c(O)c2)oc2cc(O)cc(O)c12 (stereo not shown) [Luteolin-4′-O-glucoside]",
    "units.text": "%",
    "recorded.number": 15
  },
  {
    "compound": "OCC1OC(Oc2cc3c(O)cc(O)cc3[o+]c2-c2ccc(O)c(O)c2)C(O)C(O)C1O (stereo not shown) [Cyanidin-3-O-glucoside]",
    "units.text": "%",
    "recorded.number": 5
  }
]

Lab note: each compound below needs its higher value of IC50 as compared to the IC50 of the respective aglycon filled in.
1. O=c1c(OC2OC(CO)C(O)C(O)C2O)c(-c2ccc(O)c(O)c2)oc2cc(O)cc(O)c12 [Hyperoside, quercetin-3-O-D-galactoside]
2. OCC1OC(Oc2cc3c(O)cc(O)cc3[o+]c2-c2ccc(O)cc2)C(O)C(O)C1O (stereo not shown) [Pelargonidin-3-O-glucoside]

1: 30; 2: 29

* * *

# target.or.test.system: Angiotensin-converting enzymes (ACE) from porcine kidneys (EC 3.4.15.1) (Sus scrofa)
# Construct: Angiotensin-converting enzymes (ACE) from porcine kidneys (EC 3.4.15.1) were purchased from Sigma-Aldrich; purchased Sigma-Aldrich (St. Louis, MO, USA); host or cells: porcine kidneys (tissue-derived enzyme)
# Sequence (F1RRW5 34-1309): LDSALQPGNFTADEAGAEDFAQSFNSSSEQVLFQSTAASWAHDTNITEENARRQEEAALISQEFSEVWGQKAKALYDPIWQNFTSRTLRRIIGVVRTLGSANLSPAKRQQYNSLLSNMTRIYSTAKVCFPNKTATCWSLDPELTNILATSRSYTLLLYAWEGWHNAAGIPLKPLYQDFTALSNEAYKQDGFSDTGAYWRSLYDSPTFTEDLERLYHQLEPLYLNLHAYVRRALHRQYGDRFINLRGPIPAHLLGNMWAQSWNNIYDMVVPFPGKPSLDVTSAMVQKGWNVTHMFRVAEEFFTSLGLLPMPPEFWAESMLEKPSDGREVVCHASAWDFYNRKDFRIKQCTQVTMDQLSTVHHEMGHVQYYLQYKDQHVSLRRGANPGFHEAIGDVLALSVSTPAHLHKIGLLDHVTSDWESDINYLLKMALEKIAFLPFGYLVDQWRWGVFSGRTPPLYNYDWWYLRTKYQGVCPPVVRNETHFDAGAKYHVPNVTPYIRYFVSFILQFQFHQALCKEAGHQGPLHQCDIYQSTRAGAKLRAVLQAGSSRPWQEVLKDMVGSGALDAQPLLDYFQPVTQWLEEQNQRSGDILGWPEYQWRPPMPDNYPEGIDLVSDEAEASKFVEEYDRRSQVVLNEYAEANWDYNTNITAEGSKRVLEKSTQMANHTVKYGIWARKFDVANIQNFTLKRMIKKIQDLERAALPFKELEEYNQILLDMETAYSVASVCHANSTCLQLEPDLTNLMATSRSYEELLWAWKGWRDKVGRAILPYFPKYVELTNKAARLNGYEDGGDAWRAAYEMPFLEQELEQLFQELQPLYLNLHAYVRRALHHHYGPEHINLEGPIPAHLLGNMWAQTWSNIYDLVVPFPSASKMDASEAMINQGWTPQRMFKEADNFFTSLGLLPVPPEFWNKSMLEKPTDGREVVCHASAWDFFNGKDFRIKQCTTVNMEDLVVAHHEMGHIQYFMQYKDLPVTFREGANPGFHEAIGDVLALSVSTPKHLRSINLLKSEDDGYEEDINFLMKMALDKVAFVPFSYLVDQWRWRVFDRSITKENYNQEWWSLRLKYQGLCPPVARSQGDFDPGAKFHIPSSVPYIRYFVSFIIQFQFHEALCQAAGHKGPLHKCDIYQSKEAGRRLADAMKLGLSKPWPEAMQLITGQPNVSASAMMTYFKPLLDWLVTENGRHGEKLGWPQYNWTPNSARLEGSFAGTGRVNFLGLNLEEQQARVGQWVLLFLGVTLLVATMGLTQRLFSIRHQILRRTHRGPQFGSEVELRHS
# protocol.description: biochemical
# experimental.setup: porcine kidney ACE, substrate Abz-Gly-Phe(NO2)-Pro, fluorescence after 30 min; mean ± SD; read-out: IC50 Value (ACE inhibitory activity)
Where “and” joins values, the source holds several entries; their conditions need not be identical. Equal entries are not always repeated.
attribute.measured: IC50

[
  {
    "compound": "O=C(O)/C=C/c1ccc(O)c(O)c1",
    "attribute.measured": "IC50",
    "result": "9100 µM and 9110 µM"
  },
  {
    "compound": "O=C(O)Cc1ccc(O)c(O)c1 [3,4-DHPAA, 3,4-dihydroxyphenylacetic acid]",
    "attribute.measured": "IC50",
    "result": "673 µM"
  },
  {
    "compound": "O=c1c(O)c(-c2ccc(O)cc2)oc2cc(O)cc(O)c12",
    "attribute.measured": "IC50",
    "result": "132 µM"
  },
  {
    "compound": "OCC1OC(Oc2cc3c(O)cc(O)cc3[o+]c2-c2cc(O)c(O)c(O)c2)C(O)C(O)C1O (stereo not drawn) [Delphinidin-3-O-glucoside]",
    "attribute.measured": "IC50",
    "result": "209 µM"
  },
  {
    "compound": "Oc1ccc(-c2[o+]c3cc(O)cc(O)c3cc2O)cc1",
    "attribute.measured": "IC50",
    "result": "293 µM"
  },
  {
    "compound": "O=C(O)CCc1ccc(O)cc1O [3-2,4-DHPPA, 3-(2,4-dihydroxyphenyl)propionic acid]",
    "attribute.measured": "IC50",
    "result": "745 µM"
  },
  {
    "compound": "O=c1c(O)c(-c2ccc(O)cc2)oc2cc(OC3OC(CO)C(O)C(O)C3O)cc(O)c12 (stereo not drawn) [Kaempferol-7-O-glucoside]",
    "attribute.measured": "IC50",
    "result": "97.7 µM"
  },
  {
    "compound": "COC(=O)CCc1ccc(O)cc1",
    "attribute.measured": "IC50",
    "result": "726 µM"
  },
  {
    "compound": "N[C@@H](CCC(=O)N[C@@H](CS)C(=O)NCC(=O)O)C(=O)O [GSH, reduced glutathione, reference compound]",
    "attribute.measured": "IC50",
    "result": "41.7 µM"
  },
  {
    "compound": "COc1cc(C(=O)O)cc(OC)c1O",
    "attribute.measured": "IC50",
    "result": "2760 µM"
  }
]

Lab note: each compound below needs its IC50 filled in.
1. O=c1c(O)c(-c2ccc(O)c(O)c2)oc2cc(O)cc(O)c12
2. O=c1cc(-c2ccc(O)c(O)c2)oc2cc(O)cc(O)c12
3. Oc1cc(O)c2cc(O)c(-c3ccc(O)c(O)c3)[o+]c2c1
4. O=C(O)Cc1cccc(O)c1 [3-HPAA, 3-hydroxyphenylacetic acid]
5. OCC1OC(Oc2cc3c(O)cc(O)cc3[o+]c2-c2ccc(O)cc2)C(O)C(O)C1O (stereo not drawn) [Pelargonidin-3-O-glucoside]
6. COc1cc(/C=C/C(=O)O)ccc1O
7. O=C(/C=C/c1ccc(O)c(O)c1)O[C@@H]1C[C@](O)(C(=O)O)C[C@@H](O)[C@H]1O

["121 µM", "77.1 µM", "176 µM", "679 µM", "377 µM", "980 µM", "134 µM"]
